Attribution: ChEMBL document CHEMBL3885861

Species on record: Rattus norvegicus
Protocol description: Open TG-GATES - Regimen: Single
Type: toxicity, organism-based, Sprague-Dawley
Set-up: regimen Single, gender Male, age 6 weeks
Test conditions: in vivo, po, 1000 mg/kg, 6 h, tissue Plasma, route gavage, dose level High
List of ALP values.
Quick note: give the figure in IU/L, leave out the unit.

NC(N)=Nc1nc(CSCCC(N)=NS(N)(=O)=O)cs1 | 885.4
CCOC(=O)CCC(=O)O[C@H]1[C@H](O[C@@H]2[C@@H](C)[C@H](O[C@H]3C[C@@](C)(OC)[C@@H](O)[C@H](C)O3)[C@@H](C)C(=O)O[C@H](CC)[C@@](C)(O)[C@H](O)[C@@H](C)C(=O)[C@H](C)C[C@@]2(C)O)O[C@H](C)C[C@@H]1N(C)C [ERYTHROMYCIN ETHYLSUCCINATE] | 1632.2
CC(C)OC(=O)C(C)(C)Oc1ccc(C(=O)c2ccc(Cl)cc2)cc1 [FENOFIBRATE] | 1256
COc1ccc2[nH]c([S+]([O-])Cc3ncc(C)c(OC)c3C)nc2c1 (stereo not given) | 940.2

Now consider a different molecule.
Recorded ALP of "COC1=CC(=O)C[C@@H](C)[C@]12Oc1c(Cl)c(OC)cc(OC)c1C2=O" , please. 994.4

====

Species on record: Rattus norvegicus
Protocol description: Open TG-GATES - Regimen: Single
Type: toxicity, organism-based, Sprague-Dawley
Design: regimen Single, gender Male, age 6 weeks
Test conditions: in vivo, po, 1000 mg/kg, 3 h, tissue Kidney, route gavage, dose level High
Metric name: KIDNEY_TOTAL (g)
Provide the reading as a plain figure in g.

Before answering, review these 3 worked examples.
COC1=CC(=O)C[C@@H](C)[C@]12Oc1c(Cl)c(OC)cc(OC)c1C2=O [GRISEOFULVIN] | 1.9
COc1ccc2[nH]c([S+]([O-])Cc3ncc(C)c(OC)c3C)nc2c1 (stereo not given) [OMEPRAZOLE] | 2
CC(C)OC(=O)C(C)(C)Oc1ccc(C(=O)c2ccc(Cl)cc2)cc1 [FENOFIBRATE] | 1.6

Name the reported KIDNEY_TOTAL value associated with the molecule CCOC(=O)CCC(=O)O[C@H]1[C@H](O[C@@H]2[C@@H](C)[C@H](O[C@H]3C[C@@](C)(OC)[C@@H](O)[C@H](C)O3)[C@@H](C)C(=O)O[C@H](CC)[C@@](C)(O)[C@H](O)[C@@H](C)C(=O)[C@H](C)C[C@@]2(C)O)O[C@H](C)C[C@@H]1N(C)C [ERYTHROMYCIN ETHYLSUCCINATE] 1.9

Follow-up item: NC(N)=Nc1nc(CSCCC(N)=NS(N)(=O)=O)cs1 [FAMOTIDINE] 1.9

====

Species: Rattus norvegicus
Protocol description: Open TG-GATES - Regimen: Daily Repeat
Format: toxicity, organism-based, Sprague-Dawley
Set-up: regimen Daily Repeat, gender Male, age 6 weeks
Test conditions: in vivo, po, 100 mg/kg, […], tissue Plasma, route gavage, dose level Low, time 28 day
Entries and their measured gamma-GTP follow.
Please state the figure in IU/L; there is no need to write the unit.

Consider the following illustrative entries.
COC1=CC(=O)C[C@@H](C)[C@]12Oc1c(Cl)c(OC)cc(OC)c1C2=O | 0.8
COc1ccc2[nH]c([S+]([O-])Cc3ncc(C)c(OC)c3C)nc2c1 (stereo not given) | 0.8
NC(N)=Nc1nc(CSCCC(N)=NS(N)(=O)=O)cs1 | 1.2
CCOc1ccc(NC(=O)CC(C)O)cc1 (stereo not given) | 1.4

Can you look up the measured gamma-GTP of CCOC(=O)CCC(=O)O[C@H]1[C@H](O[C@@H]2[C@@H](C)[C@H](O[C@H]3C[C@@](C)(OC)[C@@H](O)[C@H](C)O3)[C@@H](C)C(=O)O[C@H](CC)[C@@](C)(O)[C@H](O)[C@@H](C)C(=O)[C@H](C)C[C@@]2(C)O)O[C@H](C)C[C@@H]1N(C)C [ERYTHROMYCIN ETHYLSUCCINATE] for me? 2.2
